# Tested on: MCF7 breast
# protocol text: NCI-60 one-dose screen, 48 h
# run conditions: 10 µM unless noted
The panel holds about 83,000 compounds, 20% with a hit somewhere; the sample as a whole holds those more often. Activity calls are given as the source filed them. The calls were made as follows: active = growth percent below 10; inactive = the rest.
Result category, one only: yes for active, no for inactive

molecule | class name
CN(C)/C(N)=N/N=C(\c1ccccc1)c1ccccn1 | no
O=C(Nc1ncc(Cc2ccccc2)s1)c1sc2ccccc2c1Cl | no
O=C(Cn1nc(-c2cccc3ccccc23)ccc1=O)NCc1cccc(Cl)c1 | no
O=C(CSc1nnnn1-c1ccccc1)Nc1ccc(Oc2ccccc2)cc1 | no
COc1ccc(/C=C2\CN(C(=O)C(Cl)Cl)C/C(=C\c3ccc(OC)c(OC)c3)C2=O)cc1OC | yes

Prompt line: Dear all, I need the recorded test outcome for C=C(C)[C@@H]1CC[C@]2(COC3CCCCO3)CC[C@]3(C)[C@H](CC[C@@H]4[C@@]5(C)C=C(C=O)C(=O)C(C)(C)[C@@H]5CC[C@]43C)[C@@H]12 (some centres undefined) , thank you.
Response line: yes

Prompt line: Try the molecule O=S(=O)(Nc1cc(F)cc(F)c1)c1ccc(-c2cnc(C3CC3)o2)cc1
Response line: no

Prompt line: Check COc1ccc(-c2nc(SCC(=O)Nc3nc4ccc(C)cc4s3)[nH]c(=O)c2C#N)cc1OC too.
Response line: no

Prompt line: Follow-up item: CSc1ccc2c3c(n(CCCn4ccnc4)c(=O)c2c1)-c1ccccc1C3=O
Response line: yes

Prompt line: Another: Cc1ccc2nc(-c3ccc(C(=O)N/N=C/c4ccc([N+](=O)[O-])cc4)cc3)[nH]c2c1
Response line: no

Prompt line: What do we get for c1cc(OCCCCCOc2cccc(-c3nc4ccccc4[nH]3)c2)cc(-c2nc3ccccc3[nH]2)c1 ?
Response line: yes

Prompt line: Please do the same for COc1ccc(C/C(C)=C(\c2ccc(Cl)cc2)c2ccc(OCCN3CCCC3)cc2)cc1 as well.
Response line: no

---

# Test system: HOP-62 NSCLC
# protocol text: NCI-60 one-dose screen, 48 h (100 = growth as untreated, 0 = no growth, -100 = all killed)
# run conditions: 10 µM unless noted
About 83,000 compounds went through this panel and 20% of them were active in at least one assay; those are over-represented in the sample as a whole.
Please mark Fulfilled if the recorded growth is equal to or greater than 70%, and Not fulfilled if it falls below.

Here are 8 molecules together with their reported answers.
molecule | class name
COc1ccc(CN2C(=O)OC(C)(COC(C)=O)C2=O)cc1 (centres undefined) | Fulfilled
N#Cc1ccc(O)c(C2=NCC(c3ccc(-c4ccccc4)cc3)O2)c1 (centres undefined) | Not fulfilled
O=C(Oc1ccc2c(c1)sc1nc(-c3ccccc3)[nH]c(=O)c12)C(F)(F)F | Not fulfilled
C=C1CC[C@@H]2C(C)(C)[C@H](O)CC[C@@]2(C)[C@@H]1COc1ccc2ccc(=O)oc2c1 | Not fulfilled
COc1ccccc1S(=O)(=O)Nc1ccc2c3c(cc(CCC(=O)NCCCCNc4cccc5c4C(=O)N(C4CCC(=O)NC4=O)C5=O)cc13)C(=O)N2C (centres undefined) | Not fulfilled
CN1CCN(Cc2ccc(NC(=O)c3cncc(C#Cc4cnc(N)cc4C#N)c3)cc2C(F)(F)F)CC1 | Not fulfilled
N#Cc1c(-c2ccccc2)nc2c(c(-c3ccc(Cl)cc3)nn2-c2ccccc2)c1-c1ccc([N+](=O)[O-])cc1 | Fulfilled
Nc1cc(Br)cc2c1[nH]c(=O)c1ccccc12 | Fulfilled

Prompt line: Does CC(=O)c1ccc(-n2cc(CN3CCN(c4cc5c(cc4F)c(=O)c(C(=O)O)cn5C4CC4)CC3)nn2)cc1 have a reported growth of at least 70%?
Response line: Fulfilled

Prompt line: Do the same for CSc1ccc(N2C(=N)C(=S)N(c3ccc(C)cc3)C2=O)cc1 please
Response line: Fulfilled

Prompt line: Here is the next molecule: O=c1oc2c(cnc3ccccc32)cc1-c1cccc(Cl)c1
Response line: Fulfilled

Prompt line: # iterate: COc1ccc(/C=C2\CN(C(=O)C(Cl)Cl)C/C(=C\c3ccc(OC)c(OC)c3)C2=O)cc1OC
Response line: Not fulfilled

Prompt line: Try this molecule next: c1csc(-c2cn3nc(-c4c[nH]c5ccccc45)sc3n2)c1
Response line: Not fulfilled

Prompt line: What about this molecule? O=C(Nc1cccnc1Nc1ccc(Cl)cc1)c1cn(Cc2cccc(Oc3ccccc3)c2)nn1
Response line: Not fulfilled

Prompt line: // repeat for CCN1C(=O)N(c2ccccc2)C2NC(=S)N(/N=C/C=C/c3ccccc3OC)C21 (centres undefined) and report
Response line: Not fulfilled

Prompt line: Please give the result for C=C1C(=O)O[C@H]2[C@H]1CC/C(COC(=O)NCc1ccc(Cn3c(=O)sn(-c4ccccc4)c3=O)cc1)=C\CC[C@@]1(C)O[C@@H]21 too.
Response line: Fulfilled

Prompt line: Continue with O=C1CCCCN1c1ccc(C2=NCCCN2)cc1
Response line: Fulfilled

Prompt line: Another molecule to look at: CC1=Nc2cnc(Nc3ccc(N4CCCCC4)cc3)nc2Nc2ccccc21
Response line: Fulfilled
